Value source: paper PMC12116762

system: neonatal rat ventricular cardiomyocytes (NVCM); assay: Inherent toxicity (LDH release) in NVCM; type: cell-based; parameters: key: % of total LDH activity; details: compound alone 1 µM; NVCM; Suppl.Fig.4
MEASUREMENT NAME: LDH release (inherent toxicity), mean of independent replicates

SMILES INPUT | REPORTED MEASUREMENT
CCc1cc(=O)oc2c(C(=O)N3CCCc4ccccc43)c(OC)ccc12 | 16.0681
CCCc1cc(=O)oc2c(C(=O)N3CCCc4ccccc43)c(OC)cc(OC)c12 | 12.9269
CCCOc1ccc2c(C)cc(=O)oc2c1C(=O)N1CCCc2ccccc21 | 13.1211
CCCCc1cc(=O)oc2c(C(=O)N3CCCc4ccccc43)c(OCCC)ccc12 | 16.9179
COc1ccc2c(C)cc(=O)oc2c1C(=O)N1CCCc2ccccc21 | 18.1168
